Here, each record is paired with measured pKi data.
molecular target: Cannabinoid receptor 1 (Rattus norvegicus); assay: Displacement of [3H]CP-55,940 from CB1 receptor in rat brain membranes in presence of FAAH inhibitor PMSF by radioligand binding assay; type: cell membranes, Membrane
Sequence (P20272 whole entry): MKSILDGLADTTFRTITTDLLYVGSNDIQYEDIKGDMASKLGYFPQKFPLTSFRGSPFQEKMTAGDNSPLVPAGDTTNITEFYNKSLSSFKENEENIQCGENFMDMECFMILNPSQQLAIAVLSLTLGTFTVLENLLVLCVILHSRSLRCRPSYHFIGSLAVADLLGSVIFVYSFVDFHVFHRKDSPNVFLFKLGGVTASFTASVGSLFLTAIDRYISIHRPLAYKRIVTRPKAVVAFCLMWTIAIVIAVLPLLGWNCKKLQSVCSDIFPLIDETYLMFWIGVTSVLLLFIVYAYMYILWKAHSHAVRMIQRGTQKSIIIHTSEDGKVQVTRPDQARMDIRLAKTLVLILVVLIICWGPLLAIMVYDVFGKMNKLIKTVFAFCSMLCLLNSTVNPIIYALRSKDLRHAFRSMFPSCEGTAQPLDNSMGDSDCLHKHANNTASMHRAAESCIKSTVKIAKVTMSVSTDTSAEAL
pKi: −log10 of the molar value.

[
  {
    "smiles_structure": "CCCCC/C=C\\C/C=C\\C/C=C\\[C@H](C)/C=C\\CCCC(=O)N[C@H](C)CO",
    "pKi": 8.66
  },
  {
    "smiles_structure": "C[C@H](/C=C\\C/C=C\\C/C=C\\CCCC(=O)NC1CC1)/C=C\\CCCCCN=C=S",
    "pKi": 7.81
  },
  {
    "smiles_structure": "C#CCNC(=O)CCC/C=C\\C/C=C\\C/C=C\\[C@@H](C)/C=C\\CCCCC",
    "pKi": 8.37
  },
  {
    "smiles_structure": "CCCCC/C=C\\[C@H](C)/C=C\\C/C=C\\C/C=C\\CCCC(=O)NCCO",
    "pKi": 8.32
  },
  {
    "smiles_structure": "CCCCC/C=C\\[C@H](C)/C=C\\C/C=C\\C/C=C\\CCCC(=O)NC1CCCC1",
    "pKi": 7.10
  }
]

* * *

target: Cannabinoid receptor 2 (Mus musculus); test: Displacement of [3H]CP-55,940 from mouse CB2 receptor expressed in HEK293 cell membranes in absence of FAAH inhibitor PMSF by radioligand binding assay
Sequence (P47936 whole entry): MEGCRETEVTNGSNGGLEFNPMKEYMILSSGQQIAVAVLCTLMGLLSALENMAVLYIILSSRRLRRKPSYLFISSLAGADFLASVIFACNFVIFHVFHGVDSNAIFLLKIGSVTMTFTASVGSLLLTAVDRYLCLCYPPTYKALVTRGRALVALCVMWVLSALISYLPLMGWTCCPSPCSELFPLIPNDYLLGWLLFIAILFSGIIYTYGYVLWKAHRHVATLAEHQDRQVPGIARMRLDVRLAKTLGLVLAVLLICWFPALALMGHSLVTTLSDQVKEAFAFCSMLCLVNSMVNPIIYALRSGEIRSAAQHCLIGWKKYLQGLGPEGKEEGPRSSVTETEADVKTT
pKi: −log10 of the molar value.
Here, each record is paired with measured pKi data.
measured_quantity: pKi

[
  {
    "molecule": "C[C@H](/C=C\\C/C=C\\C/C=C\\CCCC(=O)NC1CC1)/C=C\\CCCCCN=C=S",
    "sign_qualifier": "=",
    "recorded_value": 7.32
  },
  {
    "molecule": "CCCCC/C=C\\[C@H](C)/C=C\\C/C=C\\C/C=C\\CCCC(=O)NCCO",
    "sign_qualifier": "=",
    "recorded_value": 6.86
  },
  {
    "molecule": "CCCCC/C=C\\C/C=C\\C/C=C\\C/C=C\\CCCC(=O)NCCO [ANANDAMIDE]",
    "sign_qualifier": "<",
    "recorded_value": 6.00
  },
  {
    "molecule": "CCCCC/C=C\\[C@H](C)/C=C\\C/C=C\\C/C=C\\CCCC(=O)N[C@H](C)CO",
    "sign_qualifier": "=",
    "recorded_value": 6.19
  },
  {
    "molecule": "CCCCC/C=C\\C/C=C\\C/C=C\\[C@@H](C)/C=C\\CCCC(=O)NCCO",
    "sign_qualifier": "<",
    "recorded_value": 6.00
  },
  {
    "molecule": "CCCCC/C=C\\[C@@H](C)/C=C\\C/C=C\\C/C=C\\CCCC(=O)NCCO",
    "sign_qualifier": "<",
    "recorded_value": 6.00
  },
  {
    "molecule": "CCCCC/C=C\\[C@@H](C)/C=C\\C/C=C\\C/C=C\\CCCC(=O)N[C@H](C)CO",
    "sign_qualifier": "<",
    "recorded_value": 6.00
  },
  {
    "molecule": "C[C@H](/C=C\\C/C=C\\C/C=C\\CCCC(=O)NC1CC1)/C=C\\CCCCCN=[N+]=[N-]",
    "sign_qualifier": "=",
    "recorded_value": 7.88
  },
  {
    "molecule": "CCCCC/C=C\\[C@H](C)/C=C\\C/C=C\\C/C=C\\CCCC(=O)NC1CCCC1",
    "sign_qualifier": "=",
    "recorded_value": 6.41
  },
  {
    "molecule": "CCCCC/C=C\\C/C=C\\[C@H](C)/C=C\\C/C=C\\CCCC(=O)NCCO",
    "sign_qualifier": "<",
    "recorded_value": 6.00
  },
  {
    "molecule": "CCCCC/C=C\\C/C=C\\C/C=C\\[C@H](C)/C=C\\CCCC(=O)NCCO",
    "sign_qualifier": "=",
    "recorded_value": 8.12
  }
]
